Origin of the recorded values: patent US9227935B2

Target sequence: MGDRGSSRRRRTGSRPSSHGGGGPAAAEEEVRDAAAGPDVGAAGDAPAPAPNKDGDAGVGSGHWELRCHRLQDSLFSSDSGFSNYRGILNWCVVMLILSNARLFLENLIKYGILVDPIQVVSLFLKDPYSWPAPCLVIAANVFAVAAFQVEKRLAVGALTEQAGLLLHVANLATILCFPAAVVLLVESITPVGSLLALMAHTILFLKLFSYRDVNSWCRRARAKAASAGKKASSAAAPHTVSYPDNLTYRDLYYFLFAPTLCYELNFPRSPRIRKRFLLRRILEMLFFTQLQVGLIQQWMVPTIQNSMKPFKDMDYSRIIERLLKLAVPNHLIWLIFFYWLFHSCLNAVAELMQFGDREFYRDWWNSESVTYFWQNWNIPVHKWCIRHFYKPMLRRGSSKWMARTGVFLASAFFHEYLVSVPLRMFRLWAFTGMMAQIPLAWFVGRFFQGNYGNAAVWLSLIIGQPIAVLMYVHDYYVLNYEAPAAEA
Entries annotated with measured log10 IC50
Remember, log10 of IC50, in nM.

Completed entries (count: 3):
Cc1ccccc1NC(=O)N1CCC(c2ccc(NC(=O)c3ccccc3-c3ccc(C(F)(F)F)cc3)cc2)CC1 [Compound 7] : 3.54
Cc1n[nH]c(C)c1-c1ccccc1C(=O)Nc1ccc(N2CCN(C(=O)Nc3c(Cl)cccc3Cl)CC2)cc1 [Compound 26] : 2.60
O=C(Nc1cccc(N2CCCC2)c1)c1ccc(N2CCN(C(=O)Cc3c(Cl)cccc3Cl)CC2)cc1 [Compound 131] : 1.49

## Input Look up log10 IC50: CN1CCN(c2ccc(C(=O)Nc3ccc(N4CCN(C(=O)Nc5c(Cl)cccc5Cl)CC4)cc3)cc2)CC1 [Compound 44]
## Output 2.00

## Input Same read-out for CCc1cccc(C)c1NC(=O)N1CCC(c2ccc(NC(=O)c3ccccc3-c3ccc(C(F)(F)F)cc3)cc2)CC1 [Compound 110] ?
## Output 2.98

## Input Same read-out for Cc1cc(C)c(NC(=O)N2CCN(c3ccc(NC(=O)c4ccccc4-c4ccc(C(F)(F)F)cc4)cc3)CC2)c(C)c1Br [Compound 104] ?
## Output 3.30

## Input Same read-out for CCc1cccc(C)c1NC(=O)N1CCN(c2ccc(NC(=O)c3ccccc3-c3ccc(C(F)(F)F)cc3)cc2)CC1 [Compound 83] ?
## Output 3.19

* * *

Entries annotated with measured melting point
Response body: numeric value in °C, unit text excluded.

COC(=O)c1cccc(C(=O)Nc2ccc(N3CCN(C(=O)Nc4c(Cl)cc(CN5CCCC5)cc4Cl)CC3)cc2)c1 [Compound 140] : 247.52

## Input Look up melting point: CN1CCN(C(=O)Cc2cc(Cl)c(NC(=O)N3CCN(c4ccc(NC(=O)c5cccc(N6CCCC6)c5)cc4)CC3)c(Cl)c2)CC1 [Compound 136]
## Output 254.77

## Input Same read-out for O=C(Nc1ccc(N2CCN(C(=O)Oc3c(Cl)cccc3Cl)CC2)cc1)c1cccc(N2CCCC2)c1 [Compound 139] ?
## Output 212.69

## Input Same read-out for O=C(Nc1ccc(N2CCN(C(=O)Nc3c(Cl)cccc3Cl)CC2)cc1)c1ccccc1-c1ccc(C(F)(F)F)cc1 [Compound 9] ?
## Output 289

## Input Same read-out for O=C(Nc1ccc(N2CCN(C(=S)Nc3c(Cl)cccc3Cl)CC2)cc1)c1ccccc1-c1ccc(C(F)(F)F)cc1 [Compound 8] ?
## Output 224.5

## Input Same read-out for CC(C)N(Cc1cc(Cl)c(NC(=O)N2CCN(c3ccc(NC(=O)c4cccc(N5CCCC5)c4)cc3)CC2)c(Cl)c1)C(C)C [Compound 137] ?
## Output 270.85
